These measurements were taken from ChEMBL document CHEMBL6109116.

The following compounds have recorded pKi on Kappa-type opioid receptor (Cavia porcellus).
Sequence (P41144 whole entry): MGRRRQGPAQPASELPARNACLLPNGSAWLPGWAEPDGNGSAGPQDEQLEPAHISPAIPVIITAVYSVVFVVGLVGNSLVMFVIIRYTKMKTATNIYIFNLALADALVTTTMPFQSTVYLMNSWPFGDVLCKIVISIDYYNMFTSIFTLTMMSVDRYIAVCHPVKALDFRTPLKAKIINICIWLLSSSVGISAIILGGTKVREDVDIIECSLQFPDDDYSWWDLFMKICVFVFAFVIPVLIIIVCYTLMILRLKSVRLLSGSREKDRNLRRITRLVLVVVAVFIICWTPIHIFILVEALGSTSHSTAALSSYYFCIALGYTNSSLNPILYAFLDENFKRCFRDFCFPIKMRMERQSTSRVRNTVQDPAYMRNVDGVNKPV
On this scale, pKi is minus log10 of a concentration expressed in M (mol/L).

Before answering, review these 5 worked examples.
givenSmiles: CC(C)C[C@H]1CN2C(=CC3=NC[C@H](CN(C)C)N3C[C@@H]2Cc2ccc(O)cc2)N1CCc1ccccc1
pKi: 7.33
--
givenSmiles: CC(C)[C@H]1CN=C2C=C3N(CCN4CCOCC4)[C@@H](Cc4ccc(O)cc4)CN3[C@@H](Cc3ccc(O)cc3)CN21
pKi: 7.39
--
givenSmiles: CC(C)[C@H]1CN=C2C=C3N(CCc4ccccc4)[C@@H](CCN(C)C)CN3[C@@H](Cc3ccc(O)cc3)CN21
pKi: 7.70
--
givenSmiles: CC(C)C[C@H]1CN=C2C=C3N4CCC[C@H]4CN3[C@@H](Cc3ccc(O)cc3)CN21
pKi: 7.40
--
givenSmiles: CC(C)[C@H]1CN=C2C=C3N(CCc4ccccc4)CC[C@H](N(C)C)CN3[C@@H](Cc3ccc(O)cc3)CN21
pKi: 7.60

Kindly review the next compound as well.
# input Hello, I am looking for reported pKi with Kappa-type opioid receptor (Cavia porcellus) for CC(C)C[C@H]1CN2C(=CC3=NC[C@H](CC(C)C)N3C[C@@H]2Cc2ccc(O)cc2)N1CCN1CCOCC1 . Could you help?
# output 7.82

====

# System: Mus musculus
# assaySummary: Antinociceptive activity in male C57BL/6J mouse preadministered with compound for 10 mins followed by acetic acid administration and measured after 15 to 30 min by Acetic acid stretching assay (AcAS)
# Format: functional
# conditionSummary: time 25-40 min
observedProperty: ED50
Answer format reminder: number followed by unit.

givenSmiles: CN1CC[C@]23c4c5ccc(O)c4O[C@H]2[C@@H](O)C=C[C@H]3[C@H]1C5
observedResult: 0.9 mg/kg
//
givenSmiles: CN1CCN(CCN2C(=N)N([C@@H](CCCNC(=N)N)CN3C(=N)NC[C@@H]3Cc3ccc(O)cc3)C[C@@H]2Cc2ccc(O)cc2)CC1
observedResult: 4.97 mg/kg
//
givenSmiles: CC(C)C[C@H]1CN2C(=CC3=NC[C@H](CCN(C)C)N3C[C@@H]2Cc2ccc(O)cc2)N1CCc1ccccc1
observedResult: 0.2 mg/kg

Kindly review the next compound as well.
# input For the compound CC(C)[C@H]1CN=C2C=C3N(CCc4ccccc4)CC[C@H](N(C)C)CN3[C@@H](Cc3ccc(O)cc3)CN21 , what ED50 is on record?
# output 0.67 mg/kg

====

The reader will find reported pKi values listed item by item below.
# systemName: Mu-type opioid receptor (Rattus norvegicus, UniProt P33535)
# Sequence (P33535 whole entry): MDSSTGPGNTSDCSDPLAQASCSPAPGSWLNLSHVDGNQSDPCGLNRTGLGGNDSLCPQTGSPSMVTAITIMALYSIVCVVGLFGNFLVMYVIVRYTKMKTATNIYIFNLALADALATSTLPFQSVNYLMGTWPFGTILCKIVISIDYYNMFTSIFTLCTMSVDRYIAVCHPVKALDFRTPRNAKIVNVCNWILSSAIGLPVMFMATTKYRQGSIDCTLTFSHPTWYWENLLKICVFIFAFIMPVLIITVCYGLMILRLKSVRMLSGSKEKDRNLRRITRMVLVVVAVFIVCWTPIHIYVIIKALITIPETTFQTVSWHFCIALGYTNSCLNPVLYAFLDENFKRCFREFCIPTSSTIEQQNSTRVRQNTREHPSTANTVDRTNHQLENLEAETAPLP
On this scale, pKi is minus log10 of a concentration expressed in M (mol/L).

givenSmiles: CC(C)(C)c1ccc(S(=O)(=O)NCCN2C(=N)N([C@@H](Cc3ccc(O)cc3)CN3C(=N)NC[C@@H]3CCCNC(=N)N)C[C@@H]2CCCNC(=N)N)cc1
pKi: 6.34

Kindly review the next molecule as well.
# input For the molecule CC(C)C[C@H]1CN2C(=CC3=NC[C@H](CN(C)C)N3C[C@@H]2Cc2ccc(O)cc2)N1CCc1ccccc1 , what pKi is on record?
# output 7.00

====

The reader will find reported Ki values listed item by item below.
# systemName: Mu-type opioid receptor (Rattus norvegicus)
Give the number; µM is assumed, so skip it.

Before answering, review these 3 worked examples.
givenSmiles: CC(C)(C)c1ccc(S(=O)(=O)NCCN2C(=N)N([C@@H](CCCNC(=N)N)CN3C(=N)NC[C@@H]3CCCNC(=N)N)C[C@@H]2CCCNC(=N)N)cc1
Ki, µM: 0.34

givenSmiles: CC(C)[C@H]1CN=C2C=C3N(CCc4ccccc4)CC[C@H](N(C)C)CN3[C@@H](Cc3ccc(O)cc3)CN21
Ki, µM: 0.43

givenSmiles: CC(C)[C@H]1CN=C2C=C3N(CCc4ccccc4)[C@@H](CN(C)C)CN3[C@@H](Cc3ccc(O)cc3)CN21
Ki, µM: 0.026

Kindly review the next compound as well.
# input For the compound CN1CCN(CCN2C(=N)N([C@@H](CCCNC(=N)N)CN3C(=N)NC[C@@H]3Cc3ccc(O)cc3)C[C@@H]2Cc2ccc(O)cc2)CC1 , what Ki is on record?
# output 0.197
